- protocol_notes: Solubility study of the Steroid in water / aqueous cyclodextrin solutions (phase-solubility, UV/VIS)
- Format: physicochemical
- condition: water, no cyclodextrin; read-out: original solubility in water
- Procedure: The solubility studies were performed according to the method described below which is well known in the litrature. Excess amounts of the Steroid were added to aqueous solutions of 2,6-dimethyl-β-cyclodextrin. These suspensions were shaken at room temperature during 5 days followed by an equilibration period of 3 days at room temperature. […] The absorbance was read and compared with a blanc and standard calibration curve. […]
metric: solubility (µg/mL)
Note: unit µg/mL is implicit; provide only the numeric part.

Ask | Given the compound CCC(=O)[C@@]1(C)[C@H](C)C[C@H]2[C@@H]3CCC4=CC(=O)C=C[C@]4(C)[C@H]3[C@@H](O)C[C@@]21C [Org 6216] , what is its reported solubility?
Reply | 0.5

---

- protocol_notes: Solubility study of the Steroid in water / aqueous cyclodextrin solutions (phase-solubility, UV/VIS)
- Type: physicochemical
- condition: water, 2,6-dimethyl-beta-cyclodextrin, inclusion complex with 2,6-dimethyl-β-cyclodextrin; read-out: solubility of the Steroid in water
metric: solubility

Ask | Given the molecule CCC(=O)[C@@]1(C)[C@H](C)C[C@H]2[C@@H]3CCC4=CC(=O)C=C[C@]4(C)[C@H]3[C@@H](O)C[C@@]21C , what is its reported solubility?
Reply | ~10000 µg/mL

---

- protocol_notes: Solubility study of the Steroid in water / aqueous cyclodextrin solutions (phase-solubility, UV/VIS)
- Type: physicochemical
- condition: water with α-cyclodextrin, in water with α-cyclodextrin, room temperature; read-out: Solubility
metric: solubility (µg/mL)
Note: unit µg/mL is implicit; provide only the numeric part.

Ask | Given the compound CCC(=O)[C@@]1(C)[C@H](C)C[C@H]2[C@@H]3CCC4=CC(=O)C=C[C@]4(C)[C@H]3[C@@H](O)C[C@@]21C , what is its reported solubility?
Reply | 40

---

- protocol_notes: Solubility study of the Steroid in water / aqueous cyclodextrin solutions (phase-solubility, UV/VIS)
- Format: physicochemical
- condition: water with β-cyclodextrin, in water with β-cylodextrin, room temperature; read-out: Solubility
metric: solubility (mg/mL)
Note: unit mg/mL is implicit; provide only the numeric part.

Ask | Given the molecule CCC(=O)[C@@]1(C)[C@H](C)C[C@H]2[C@@H]3CCC4=CC(=O)C=C[C@]4(C)[C@H]3[C@@H](O)C[C@@]21C , what is its reported solubility?
Reply | 0.05

---

- protocol_notes: Solubility study of the Steroid in water / aqueous cyclodextrin solutions (phase-solubility, UV/VIS)
- Format: physicochemical
- condition: water, no cyclodextrin; read-out: Solubility without cyclodextrin
metric: solubility (µg/mL)
Note: unit µg/mL is implicit; provide only the numeric part.

Ask | Given the molecule CCC(=O)[C@@]1(C)[C@H](C)C[C@H]2[C@@H]3CCC4=CC(=O)C=C[C@]4(C)[C@H]3[C@@H](O)C[C@@]21C , what is its reported solubility?
Reply | 0.7
